Every entry's value here was drawn from the supplement of paper PMC3334620.

Biological target: Sut1 (UniProt P53032)
Sequence: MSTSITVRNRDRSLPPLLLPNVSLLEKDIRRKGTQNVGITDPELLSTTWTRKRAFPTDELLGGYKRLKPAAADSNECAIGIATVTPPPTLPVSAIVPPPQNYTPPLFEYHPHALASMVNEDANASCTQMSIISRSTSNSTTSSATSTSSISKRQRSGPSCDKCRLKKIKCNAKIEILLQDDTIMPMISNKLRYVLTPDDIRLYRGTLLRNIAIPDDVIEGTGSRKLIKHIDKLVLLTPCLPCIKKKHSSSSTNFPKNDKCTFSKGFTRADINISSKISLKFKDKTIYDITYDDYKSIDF
Assay: PBM E-score (8-mer binding enrichment) (E-score (-0.5 to 0.5)); higher = stronger / more preferred TF binding
Conditions: protein concentration: 200 nM; construct: GST-full length
Over roughly 33,000 sequences, “E-score (-0.5 to 0.5)” has its median near -0.017; the highest 2% begin near 0.3. The list comes from a sample in which the highest values are over-represented; it also holds close analogues and randomly drawn sequences.
Could you label it label 1 if measured PBM E-score is -0.06 or higher, and label 0 otherwise?

1. ATCAGATG; label 0
2. GTCCTAGA; label 0
3. AGGCTGTG; label 1
4. TGGACTAA; label 0
5. GAAACTTC; label 1
6. CTAATTTC; label 1
7. AAGCTCCT; label 0
8. AGCTTAAC; label 1
9. CTCATCCA; label 0
10. AGGACTAG; label 1
11. AATCCGAC; label 1
12. ACTCCCAT; label 1
13. AGGCAGGC; label 0
14. ATATCGGG; label 1
15. GAACTGTC; label 1
16. ATGAATAC; label 1
